- target.system: T1, pKal (Homo sapiens, UniProt P03952)
- T1 construct: two disulfide linked polypeptides; a heavy chain of approximately 52 kDa and a catalytic domain of approximately 34 kDa; host or cells: human plasma
- T1 sequence (P03952 391-638 limits assumed): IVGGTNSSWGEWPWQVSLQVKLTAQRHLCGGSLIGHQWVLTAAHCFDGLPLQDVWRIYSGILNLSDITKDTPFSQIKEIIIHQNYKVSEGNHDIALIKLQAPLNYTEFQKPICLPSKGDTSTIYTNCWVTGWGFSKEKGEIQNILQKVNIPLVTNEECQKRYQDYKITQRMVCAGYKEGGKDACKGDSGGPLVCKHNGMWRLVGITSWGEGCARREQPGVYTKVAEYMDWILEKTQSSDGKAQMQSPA
- T1 sequence (P03952 20-390 partner limits assumed): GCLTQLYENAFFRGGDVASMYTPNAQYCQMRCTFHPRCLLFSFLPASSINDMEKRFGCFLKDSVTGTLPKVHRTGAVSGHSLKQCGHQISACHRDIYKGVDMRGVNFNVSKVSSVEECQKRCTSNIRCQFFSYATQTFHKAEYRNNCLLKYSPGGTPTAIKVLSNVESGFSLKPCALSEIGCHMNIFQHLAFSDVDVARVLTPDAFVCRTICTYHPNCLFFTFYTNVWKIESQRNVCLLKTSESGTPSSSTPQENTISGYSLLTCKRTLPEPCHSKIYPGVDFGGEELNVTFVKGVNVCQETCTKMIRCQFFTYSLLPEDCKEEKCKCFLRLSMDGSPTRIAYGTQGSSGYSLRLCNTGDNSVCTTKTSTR
- experimental.details: Fab fragments (small scale) tested for inhibition against human pKal in an in vitro protease cleavage assay
- Type: biochemical
- condition.set: Table 9

| molecule | Inhibit as a Fab? |
| --- | --- |
| X69-D08: single point mutation of M142-H08 (P1′); HV-CDR3 GGLLLWFRALKSNYFDY (antibody, V domains shown) VL: QDIQMTQSPSSLSAFVGDRVTITCRASQPIDNYLNWYHQKPGKAPKLLIYAASRLQSGVPSRLSGSGFGTDFTLTISSLQPEDFGNYYCQQSYTVPYTFGGGTKVEIR VH: EVQLLESGGGLVQPGGSLRLSCAASGFTFSAYSMIWVRQAPGKGLEWVSYIRPSGGRTTYADSVKGRFTISRDNSKNTLYLQMNSLRAEDTAVYYCARGGLLLWFRALKSNYFDYWGQGTLVTVSSASTKGPSVFPLAPSSKS | No |
| X69-A09: single point mutation of M142-H08 (P1′); HV-CDR3 … (antibody, V domains shown) VL: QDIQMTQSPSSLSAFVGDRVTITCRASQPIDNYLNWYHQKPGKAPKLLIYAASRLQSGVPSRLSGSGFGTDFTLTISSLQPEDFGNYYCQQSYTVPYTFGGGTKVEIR VH: EVQLLESGGGLVQPGGSLRLSCAASGFTFSAYSMIWVRQAPGKGLEWVSYIRPSGGRTTYADSVKGRFTISRDNSKNTLYLQMNSLRAEDTAVYYCARGGLLLWFRSLKSNYFDYWGQGTLVTVSSASTKGPSVFPLAPSSKS | Yes |
